As shown below, each of these sequences has a reported self-splicing fitness (ln) value.
# experimentalProtocol: self-splicing fitness, log relative to wild type (ln ratio); higher = more splicing; Tetrahymena group I intron in knt gene, E. coli kanamycin selection, DiMSum; sequences stand for … in CUCUCU…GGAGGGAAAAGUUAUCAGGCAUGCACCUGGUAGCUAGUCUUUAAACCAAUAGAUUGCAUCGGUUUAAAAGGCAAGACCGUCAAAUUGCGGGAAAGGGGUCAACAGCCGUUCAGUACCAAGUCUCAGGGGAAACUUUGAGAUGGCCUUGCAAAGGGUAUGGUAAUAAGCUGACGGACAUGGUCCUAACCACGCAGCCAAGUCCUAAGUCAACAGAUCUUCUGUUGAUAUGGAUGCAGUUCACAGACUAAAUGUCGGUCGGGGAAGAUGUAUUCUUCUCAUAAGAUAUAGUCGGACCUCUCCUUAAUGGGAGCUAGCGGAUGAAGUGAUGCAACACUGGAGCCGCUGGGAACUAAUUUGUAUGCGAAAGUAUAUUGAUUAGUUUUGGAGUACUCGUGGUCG;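 note: selection with 25 µg/mL kanamycin versus none on LB agar overnight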
# experimentalParameters: 30 °C

Reference set (6 entries):
# monomerSequence, self-splicing fitness (ln)
data = [
    ("CGUAAGCAAUAUUACGUUGC", -2.73),
    ("UUGAAGCAAUAUUACGGUCG", 0.0283),
    ("ACACAGCAAUAUUACGAGAC", -3.25),
    ("UAUCAGCAAUAUUACGAAAU", -2.9),
    ("UACGAGCAAUAUUACGAGAU", -3.99),
    ("AAAUAGCAAUAUUACGCUGG", -1.94),
]

# input // returns reported self-splicing fitness (ln) for input CGGUAGCAAUAUUACGUAGG
# output -0.647

# input Can you check GAGCAGCAAUAUUACGGCGG next?
# output -2.18

# input What do we get for ACCAAGCAAUAUUACGUACU ?
# output -0.582

# input Item: UUCAAGCAAUAUUACGAGAG
# output -1.5

# input Request: AAGCAGCAAUAUUACGGGAA
# output -3.05

# input Param item: CGAUAGCAAUAUUACGACGG
# output 0.185

# input Same for AACGAGCAAUAUUACGGAAU
# output -2.84

# input Same again, this time with AGACAGCAAUAUUACGCCAU
# output -3.25

# input Same for UGUUAGCAAUAUUACGUCGA
# output -0.909

# input Please answer likewise for UGACAGCAAUAUUACGCUUA
# output -1.26

---

Reported self-splicing fitness (ln) values for the following sequences.
# experimentalProtocol: self-splicing fitness, log relative to wild type (ln ratio); higher = more splicing; Tetrahymena group I intron in knt gene, E. coli kanamycin selection, DiMSum; sequences stand for … in CUCUCU…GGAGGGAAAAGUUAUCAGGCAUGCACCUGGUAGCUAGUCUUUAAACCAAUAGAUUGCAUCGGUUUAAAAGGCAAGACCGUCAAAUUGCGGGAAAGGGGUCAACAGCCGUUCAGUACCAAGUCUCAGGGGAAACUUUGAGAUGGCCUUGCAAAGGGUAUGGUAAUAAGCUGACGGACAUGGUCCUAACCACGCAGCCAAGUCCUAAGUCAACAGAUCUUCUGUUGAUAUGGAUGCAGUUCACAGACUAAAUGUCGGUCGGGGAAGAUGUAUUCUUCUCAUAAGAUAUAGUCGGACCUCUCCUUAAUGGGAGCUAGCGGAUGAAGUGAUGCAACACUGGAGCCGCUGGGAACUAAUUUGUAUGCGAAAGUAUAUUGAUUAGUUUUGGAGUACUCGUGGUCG
# experimentalParameters: 37 °C
A bare number is all that is needed in reply.

Below: 2 sequences and their reported self-splicing fitness (ln).
# monomerSequence, self-splicing fitness (ln)
measured = [
    ("UACGAGCAAUAUUACGGUGU", -3.09),
    ("GACAAGCAAUAUUACGAUGC", -0.732),
]

# input Fill blank: measured self-splicing fitness (ln) of the sequence CUAGAGCAAUAUUACGCUAG is ____.
# output -2.49

# input Same for UGACAGCAAUAUUACGAUAG
# output -0.347

# input Now this one: CUUGAGCAAUAUUACGGUAA
# output -2.99
